target: MMP-8 (Homo sapiens); construct: In regard to MMP-8, catalytic domain (^99Phe˜^262Gly) was amplified with PCR; His-tag; enterokinase digestion-site; experiment: Assay for inhibitory activities on MMPs (fluorogenic peptide substrate), MMP-8
Sequence (P22894 99-262): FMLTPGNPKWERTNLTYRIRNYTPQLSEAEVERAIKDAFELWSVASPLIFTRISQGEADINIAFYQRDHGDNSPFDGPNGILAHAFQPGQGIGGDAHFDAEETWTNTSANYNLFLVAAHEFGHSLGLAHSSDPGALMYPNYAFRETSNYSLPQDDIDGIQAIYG

{"columns": ["COMPOUND SMILES", "UNITS LABEL", "READING QUALIFIER", "IC50"],
 "data": [
  ["CC(C)[C@@H](NS(=O)(=O)c1ccc(-c2ccc(COc3ccc4ccccc4c3)cc2)cc1)C(=O)O", "µM", "=", 0.14],
  ["COc1ccc2cc(C#Cc3ccc(-c4ccc(S(=O)(=O)N[C@@H](C(=O)O)C(C)C)cc4)cc3)ccc2c1", "µM", "=", 0.154],
  ["O=C(Nc1ccc(-c2ccc(S(=O)(=O)N[C@H](Cc3ccccc3)C(=O)O)cc2)cc1)c1cc2ccccc2s1", "µM", ">", 10],
  ["C[C@@H](NS(=O)(=O)c1ccc(-c2ccc(NC(=O)c3ccc(OC(F)(F)F)cc3)cc2)cc1)C(=O)O", "µM", ">", 10],
  ["O=C(Nc1ccc(-c2ccc(S(=O)(=O)N[C@H](Cc3ccccc3)C(=O)O)cc2)cc1)c1ccc2c(c1)OCO2", "µM", "=", 1.74],
  ["COc1ccc2cc(C#Cc3ccc(-c4ccc(S(=O)(=O)N[C@H](CC(=O)O)C(=O)O)cc4)cc3)ccc2c1", "µM", "=", 0.519],
  ["COc1ccc2cc(C#Cc3ccc(-c4ccc(S(=O)(=O)N[C@@H](C)C(=O)O)cc4)cc3)ccc2c1", "µM", ">", 10],
  ["CC(C)C[C@H](NS(=O)(=O)c1ccc(-c2ccc(C#Cc3ccc4ccccc4c3)cc2)cc1)C(=O)O", "µM", "=", 0.0131],
  ["COc1ccc(C(=O)Nc2ccc(-c3ccc(S(=O)(=O)N[C@H](C)C(=O)O)cc3)cc2)cc1OC", "µM", "=", 1.52],
  ["C[C@@H](NS(=O)(=O)c1ccc(-c2ccc(NC(=O)c3ccc4ccccc4c3)cc2)cc1)C(=O)O", "µM", ">", 10],
  ["COc1ccc2cc(C#Cc3ccc(-c4ccc(S(=O)(=O)N[C@@H](Cc5c[nH]c6ccccc56)C(=O)O)cc4)cc3)ccc2c1", "µM", "=", 4.46],
  ["COc1ccc2cc(C#Cc3ccc(-c4ccc(S(=O)(=O)N[C@H](CSC)C(=O)O)cc4)cc3)ccc2c1", "µM", "=", 0.109]
]}

----------
Entries and their IC50 values follow.
molecular target: MMP-12 (Homo sapiens); construct: In regard to MMP-12, catalytic domain (^100Phe˜^263Gly) was amplified with RT-PCR; His-tag; enterokinase digestion-site; experiment: Assay for inhibitory activities on MMPs (fluorogenic peptide substrate), MMP-12
Sequence (P39900 100-263): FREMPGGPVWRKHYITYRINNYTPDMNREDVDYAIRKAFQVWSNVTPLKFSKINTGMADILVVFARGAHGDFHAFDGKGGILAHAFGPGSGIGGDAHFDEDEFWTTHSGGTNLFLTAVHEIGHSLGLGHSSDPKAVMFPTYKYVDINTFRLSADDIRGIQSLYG

{"columns": ["MOLECULE", "IC50"],
 "data": [
  ["O=C(Nc1ccc(-c2ccc(S(=O)(=O)N[C@H](Cc3ccccc3)C(=O)O)cc2)cc1)c1cc2ccccc2s1 [VI-47]", "> 10 µM"],
  ["COc1ccc2cc(C(=O)Nc3ccc(-c4ccc(S(=O)(=O)N[C@H](Cc5ccccc5)C(=O)O)cc4)cc3)ccc2c1 [VI-45]", "> 10 µM"],
  ["O=C(Nc1ccc(-c2ccc(S(=O)(=O)N[C@H](Cc3ccccc3)C(=O)O)cc2)cc1)c1ccc2ccccc2c1 [VI-10]", "> 10 µM"]
]}
